Assay Text: Average particle size and PDI by dynamic light scattering (Zetasizer Nano ZS)
Type: physicochemical
Conditions Used: pFluc-loaded LNP, N/P ratio 9
Measured Quantity: PdI
Answer with a number only.

Please list PdI recorded for the compound CCCN(CCC)CCCCC(O)(CCCCCCOC(=O)C(CCC(C)CC(C)(C)C)C(C)CC(C)(C)C)CCCCCCOC(=O)C(CCC(C)CC(C)(C)C)C(C)CC(C)(C)C (stereo not drawn)
0.19

Report PdI for CC(CCC(C(=O)OCCCCCCC(O)(CCCCCCOC(=O)C(CCC(C)CC(C)(C)C)C(C)CC(C)(C)C)CCCCOC(=O)C1CCN(C)CC1)C(C)CC(C)(C)C)CC(C)(C)C (stereo not drawn)
0.12

Read the entry CCCCCCCC/C=C\CCCCCCCC(=O)OCCCCCCC(O)(CCCCCCOC(=O)CCCCCCC/C=C\CCCCCCCC)CCCCN(CCC)CCC [CL4H6, reference compound] and write its reported PdI.
0.2

Determine from records and report PdI for CCCCCCCCC(CCCCCC)C(=O)OCCCCCCC(O)(CCCCCCOC(=O)C(CCCCCC)CCCCCCCC)CCCCN(CCC)CCC (stereo not drawn)
0.19

Tell me measured PdI for CCCCCCCC/C=C\CCCCCCCC(=O)OCCCCCCC(O)(CCCCCCOC(=O)CCCCCCC/C=C\CCCCCCCC)CCCCOC(=O)C1CCN(C)CC1 [CL15H6, reference compound] please.
0.11

Please look at this compound and report its PdI: CCCCCCCCC(CCCCCC)C(=O)OCCCCCCC(O)(CCCCCCOC(=O)C(CCCCCC)CCCCCCCC)CCCCOC(=O)C1CCN(C)CC1 (stereo not drawn)
0.13

---

Assay Text: Average particle size and PDI by dynamic light scattering (Zetasizer Nano ZS)
Format: physicochemical
Conditions Used: pFluc-loaded LNP, N/P ratio 6
Doc: threshold 0.1 (exclusive). Items with PdI beneath it return 1; others return -1.

Strictly below 0.1 in PdI? CCCN(CCC)CCCCC(O)(CCCCCCOC(=O)C(CCC(C)CC(C)(C)C)C(C)CC(C)(C)C)CCCCCCOC(=O)C(CCC(C)CC(C)(C)C)C(C)CC(C)(C)C (stereo not drawn) [CL4G6]
-1

Is the reported PdI for CCCCCCCCC(CCCCCC)C(=O)OCCCCCCC(O)(CCCCCCOC(=O)C(CCCCCC)CCCCCCCC)CCCCN(CCC)CCC (stereo not drawn) [CL4F6] strictly below 0.1?
1

PdI strictly < 0.1 for this compound? CCCCCCCCC(CCCCCC)C(=O)OCCCCCCC(O)(CCCCCCOC(=O)C(CCCCCC)CCCCCCCC)CCCCOC(=O)C1CCN(C)CC1 (stereo not drawn) [CL15F6]
1

Report whether reported PdI is lower than 0.1 (strictly) for CCCCCCCC/C=C\CCCCCCCC(=O)OCCCCCCC(O)(CCCCCCOC(=O)CCCCCCC/C=C\CCCCCCCC)CCCCOC(=O)C1CCN(C)CC1 [CL15H6, reference compound]
1

Report whether reported PdI is lower than 0.1 (strictly) for CC(CCC(C(=O)OCCCCCCC(O)(CCCCCCOC(=O)C(CCC(C)CC(C)(C)C)C(C)CC(C)(C)C)CCCCOC(=O)C1CCN(C)CC1)C(C)CC(C)(C)C)CC(C)(C)C (stereo not drawn) [CL15G6]
1

Determine if CCCCCCCC/C=C\CCCCCCCC(=O)OCCCCCCC(O)(CCCCCCOC(=O)CCCCCCC/C=C\CCCCCCCC)CCCCN(CCC)CCC [CL4H6, reference compound] shows PdI strictly lower than 0.1.
-1
